# method_summary: Aqueous solubility in solvents with different pH (excess solute equilibrated at 20° C., UV spectrometry)
# Format: physicochemical
# condition_parameters: pH 5.1, water, Water (pH 5.1), at least 24 hours

molecule: CC(C)CN(C[C@@H](O)[C@H](Cc1ccccc1)NC(=O)O[C@H]1CO[C@H]2OCC[C@H]21)S(=O)(=O)c1ccc(N)cc1 [Form B]
solubility thermodynamic (µg/mL): 100

====

# method_summary: Approximate solubility in different solvents at approximate 23° C.
# Assay type: physicochemical
# condition_parameters: organic solvent or mixture, thermodynamic from solid, Heptane

compound: CC(C)CN(C[C@@H](O)[C@H](Cc1ccccc1)NC(=O)O[C@H]1CO[C@H]2OCC[C@H]21)S(=O)(=O)c1ccc(N)cc1 [Form A]
solubility: < 3400 µg/mL
